# Tested on: Saccharomyces cerevisiae;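 note: PSI is a weighted mean of sequencing reads over stability bins, variants kept only with over 10 reads, mCherry proximal and sfGFP distal, peptide attached via GGGS linker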
# run-description: protein stability index of tFT-peptide fusion (C-terminal peptide) (PSI (0-1 scale)); higher = more stable (slower turnover)
# reported-conditions: genetic background: wild type; temperature: 30 C
Rule: fulfilled for protein stability index not less than 0.7, not fulfilled for anything less.

- sequence-input: "NRRPLVQNGKLF"
  measured-on: "Saccharomyces cerevisiae"
  group-label: "not fulfilled"

In: Check if protein stability index >= 0.7 (inclusive). Item: RELKSPRCRTHR
Out: not fulfilled

In: Check if protein stability index >= 0.7 (inclusive). Item: ADCLSCRVLIVM
Out: not fulfilled

In: Check if protein stability index >= 0.7 (inclusive). Item: SYLVLLHDRGMK
Out: not fulfilled

In: Check if protein stability index >= 0.7 (inclusive). Item: LRSLLIIYLLIF
Out: not fulfilled

In: Check if protein stability index >= 0.7 (inclusive). Item: GKRKKRRKRRRT
Out: not fulfilled

In: Check if protein stability index >= 0.7 (inclusive). Item: FSCSRNVLVTVV
Out: not fulfilled
